These data points were gathered from PubChem BioAssay (NCI).

System: MCF7 breast
Assay: NCI tumour cell line growth inhibition, 48 h; in the data active means GI50 below about 0.43 µM; inactive means the rest
Labels: 1 (yes) (active), 0 (no) (inactive)

compound=O=C(Nc1nc2ccc(C(F)(F)F)cc2s1)c1cc(Cl)ccc1O category_label="0 (no)"
compound=C=C(CNCc1ccccc1)c1ccc(C(=O)Nc2ccccc2N)cc1 category_label="0 (no)"
compound=Cn1cc(CO)c2c1C(=O)C=C(N1CC1)C2=O category_label="1 (yes)"
compound="CCC(C)n1ncn(-c2ccc(N3CCN(c4ccc(OCC5COC(Cn6cncn6)(c6ccc(Cl)cc6Cl)O5)cc4)CC3)cc2)c1=O (stereo not given)" category_label="0 (no)"
compound=Cc1ccc(C)c(C2=C(c3cn(C)c4ccccc34)C(=O)NC2=O)c1 category_label="0 (no)"
compound=CCN(CC)CCOc1ccc(-c2nc3cc(Cl)ccc3s2)cc1 category_label="0 (no)"
compound="CCCCCCCCCCCCOC1C(C(COC2OC(C3COC(C)(C)O3)C3OC(C)(C)OC23)NC(=O)Nc2ccc(C(=O)O)cc2)OC2OC(C)(C)OC21 (stereo not given)" category_label="0 (no)"
compound=O=C(Cc1ccc(/C=C/C(=O)c2ncc[nH]2)cc1)Nc1cc(F)c(F)c(F)c1 category_label="0 (no)"
compound="CC(C)CCN1c2nc(Nc3cc(F)c(O)c(F)c3)ncc2N(C)C(=O)C1C (stereo not given)" category_label="0 (no)"
compound="COc1cc(C2CC(c3cccc(Br)c3)=NN2C(C)=O)cc(OC)c1OC (stereo not given)" category_label="1 (yes)"
compound=C=CCCCCC/C=C\[C@H](O)C#CC#C/C=C/CO category_label="0 (no)"
compound=N#CC(=C1C=CC(=NO)C=C1)c1ccccc1 category_label="1 (yes)"
compound=CN(C)CCCNC(=O)c1cc2[nH]c3c(cnc4ccc([N+](=O)[O-])cc43)c(=O)c2n1C category_label="0 (no)"
compound="Cn1nc(N)c2cc([C@@H]3Nc4ccc5[nH]ncc5c4[C@H]4C5CCC(C5)[C@@H]34)ccc21 (stereo not given in full)" category_label="1 (yes)"
compound="CCN(CC)c1ccc2c(c1)OC(N)=C(C#N)C2c1cc(OC)c2c(c1)OCO2 (stereo not given)" category_label="1 (yes)"

* * *

# TGI annotations
Tested on: HCC-2998 colon
Assay: NCI tumour cell line growth inhibition, 48 h
Assay Metric: TGI

compound="CC(C)N(C(=O)C12C3C4C5(C#N)C3C1(C#N)C5C42I)C(C)C (stereo unspecified)" result="> 100 µM"
compound=CC(C)c1ccccc1NC(=O)CCc1n[nH]c(=S)o1 result="> 100 µM"
compound="CC(C)(Br)C(Br)CCC1(C2CO2)CO1 (stereo unspecified)" result="> 5 µM"
compound=CN1CCN(C(=O)CCNC(=O)Cc2ccc(C(=O)c3ccccc3)cc2)CC1 result="> 100 µM"
compound="CCCCC(C(=O)C(=O)NC1C2CC3CC(C2)CC1C3)C(=O)C(C)C (stereo unspecified)" result="> 100 µM"
compound=O=C(O)CC(CC(=O)O)C(=O)O result="> 100 µM"

* * *

Test system: OVCAR-5 ovarian
Assay: NCI tumour cell line growth inhibition, 48 h
Assay Metric: GI50

compound=CCOC(=O)CCCn1c(SC)nc2[nH]cc(-c3ccccc3)c2c1=O result="37.5 µM"
compound=COc1cc2nc(-c3ccc(Cl)cc3)cc(OCCCN3CCCCC3)c2cc1OC result="1.16 µM"
compound=Cc1ccc(C)c(C2=C(c3cn(C)c4ccccc34)C(=O)NC2=O)c1 result="> 25 µM"
compound=CCn1c(-c2nonc2N)nc2c(C#CC(C)(C)O)nc(OC[C@H](N)c3ccccc3)cc21 result="5.69 µM"
compound=OC[C@H]1C[C@](O)(c2ccc(Cl)cc2)[C@@H](c2ccc(Cl)cc2)O1 result="25.9 µM"
compound=O=C1NC(=O)C(c2cnc3ccccn23)=C1c1cn2c3c(cc(F)cc13)CN(C(=O)N1CCCCC1)CC2 result="23.5 µM"
compound="COc1cc(C2CC(c3cccc(Br)c3)=NN2C(C)=O)cc(OC)c1OC (stereo not given)" result="2.93 µM"
compound=COc1cnc2c(c1)C(=O)c1c-2n(CCCNC(C)C)c(=O)c2cc(Cl)ccc12 result="1.7 µM"
compound=CN(C)CCCNC(=O)c1cc2[nH]c3c(cnc4ccc([N+](=O)[O-])cc43)c(=O)c2n1C result="17.8 µM"
compound="CC(C)CCN1c2nc(Nc3cc(F)c(O)c(F)c3)ncc2N(C)C(=O)C1C (stereo not given)" result="19.1 µM"
compound=[Cl][Hg][c]1cc(Br)cc(Br)c1 result="2.8 µM"
compound="C=C1CC[C@@H]2[C@](C)(COC(C)=O)[C@H](OC(C)=O)CC[C@@]2(C)[C@@H]1CC(Sc1ccccc1)C1=CCOC1=O (stereo not given in full)" result="2.46 µM"
compound=COc1cc(N(CCC#N)CCC#N)ccc1/C(N=Nc1ccc([N+](=O)[O-])cc1)=N/NC(=O)c1cc(Br)ccc1O result="50 µg/mL"
compound=COc1ccc(-n2cc(-c3cc(OC)c(OC)c(OC)c3)c(C(=O)C(F)(F)F)c2C)cc1 result="> 100 µM"
compound=COc1ccc(/C=C(/C(=O)N2CCN(c3ccccc3)CC2)c2cc(OC)c(OC)c(OC)c2)cc1O result="0.678 µM"
